Target: human CETP (Homo sapiens)
Sequence (P11597 18-493): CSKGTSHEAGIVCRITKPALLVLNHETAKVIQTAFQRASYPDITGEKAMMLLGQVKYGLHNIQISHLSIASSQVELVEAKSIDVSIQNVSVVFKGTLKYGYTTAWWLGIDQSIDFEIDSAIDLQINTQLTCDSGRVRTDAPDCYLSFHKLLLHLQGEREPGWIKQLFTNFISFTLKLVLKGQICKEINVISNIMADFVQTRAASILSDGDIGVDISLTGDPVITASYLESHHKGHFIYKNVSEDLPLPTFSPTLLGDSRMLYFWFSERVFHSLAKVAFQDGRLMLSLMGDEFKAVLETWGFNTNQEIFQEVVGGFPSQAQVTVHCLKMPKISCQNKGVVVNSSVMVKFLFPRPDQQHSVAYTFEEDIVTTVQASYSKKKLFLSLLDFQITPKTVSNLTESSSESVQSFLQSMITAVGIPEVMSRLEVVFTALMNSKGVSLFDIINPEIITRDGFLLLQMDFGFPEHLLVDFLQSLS
observed_property: IC50
Answer with the number, then the unit.

CC(=O)N(Cc1cc(C(F)(F)F)cc(C(F)(F)F)c1)C1CCCN(C(=O)OC2CCCC2)c2cc(OC(F)(F)F)c(C)cc21 (centres unmarked) [Example 182] ... 191 nM

Let us move to another entry and its IC50.
Identify the reported IC50 for the following entry. CC(=O)N(Cc1cc(C(F)(F)F)cc(C(F)(F)F)c1)C1CCCN(C(=O)OC(C)(C)C)c2cc(C(F)(F)F)c(C)cc21 (centres unmarked) [Example 117]
65 nM
